Data provenance: patent US20070059632A1

- assay name: Inhibition of dissolution in alkali developing solution
- Format: physicochemical
- Design: key: A: no change was visually noticed in the state of film; C: the surface was roughened or a part of the film was lost because of dissolution
- measurement context: resist film immersed in 2.38% aqueous solution of TMAH for 3 min
measured endpoint: (3) Inhibition of dissolution in developing solution

molecule	reported measurement
CCOC(C)Oc1ccc(C2(c3ccc(O)c(-c4ccccc4)c3)Cc3cccc4cccc2c34)cc1-c1ccccc1 (stereo not shown) [Compound 8-5]	A
CC(C)(C)OC(=O)Oc1ccc(C(C)(c2ccc(O)cc2)c2ccc3ccccc3c2)cc1 (stereo not shown) [Compound 5-8]	A
Cc1cc(C(C)(c2ccc(O)c(C)c2)c2ccc3ccccc3c2)ccc1O [Compound 14-5, reference compound]	C
CC(C)(C)OC(=O)Cc1cc(C(C)(c2ccc(OC(=O)OC(C)(C)C)c(OC(=O)OC(C)(C)C)c2)c2ccc3ccccc3c2)ccc1OC(=O)OC(C)(C)C (stereo not shown) [Compound 5-3]	A

###

- assay name: Alkali developability
- Format: physicochemical
- Parameters: key: A: the resist film dissolved completely and disappeared; C: the resist film remained not dissolved even in a slight amount
- measurement context: tested on the corresponding polyphenol compound A before introducing the acid-dissociating group; film immersed in 2.38% aqueous TMAH for 10 s
measured endpoint: (5) Alkali developability

# count of solved cases: 6
> print(dat)
                                   molecule          measured.endpoint  reported.measurement
1  CC(C)(C)OC(=O)Oc1ccc(C(C)(c2ccc(O)cc2)c2ccc3ccccc3c2)cc1 (stereo not shown)  (5) Alkali developability                     A
2  CC(C)(C)OC(=O)Oc1ccc(C2(c3ccc(OC(=O)OC(C)(C)C)cc3)C(=O)c3cccc4cccc2c34)cc1  (5) Alkali developability                     A
3  CC1(c2ccc3ccccc3c2)c2ccc(O)cc2Oc2cc(OC3CCCCC3)ccc21 (stereo not shown)  (5) Alkali developability                     A
4  CCOC(C)Oc1ccc2c(c1)Oc1cc(O)ccc1C21Cc2cccc3cccc1c23 (stereo not shown)  (5) Alkali developability                     A
5  Oc1ccc(C2(c3ccc(OC4CCCCO4)cc3)Cc3cccc4cccc2c34)cc1 (stereo not shown)  (5) Alkali developability                     A
6  CC(C)(C)OC(=O)Oc1cc(C2(c3ccc(OC(=O)OC(C)(C)C)c(OC(=O)OC(C)(C)C)c3)c3ccccc3-c3ccccc32)ccc1O  (5) Alkali developability                     A

Continue with the next molecule.
Lab note: CC(C)(C)OC(=O)Oc1ccc2c(c1)Oc1cc(O)ccc1C21c2ccccc2-c2ccccc21 gave (5) Alkali developability of A
